# Assayed Target: Casein kinase I isoform delta (Homo sapiens) (UniProt P48730)
# Sequence (P48730 whole entry, looked up, canonical isoform): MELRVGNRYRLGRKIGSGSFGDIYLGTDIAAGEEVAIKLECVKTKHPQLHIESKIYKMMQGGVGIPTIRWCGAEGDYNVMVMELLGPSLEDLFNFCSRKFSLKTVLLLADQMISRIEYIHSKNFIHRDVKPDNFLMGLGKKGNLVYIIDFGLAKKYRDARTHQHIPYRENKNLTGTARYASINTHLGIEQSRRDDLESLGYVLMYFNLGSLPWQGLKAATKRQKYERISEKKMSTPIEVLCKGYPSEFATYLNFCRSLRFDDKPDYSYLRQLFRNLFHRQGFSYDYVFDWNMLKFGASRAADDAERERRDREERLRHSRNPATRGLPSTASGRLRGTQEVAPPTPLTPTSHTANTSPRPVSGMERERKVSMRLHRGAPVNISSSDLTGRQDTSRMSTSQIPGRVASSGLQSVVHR
# Experimental Conditions: Compound concentration 20.0 uM, Protein concentration 2.0 uM, Result type QC Liability
# Description: Thermal Shift Assay. Domain: start/stop: M1-K294
Readout Type: ΔTm (°C)

INSERT INTO results (molecule, value) VALUES
  ('COc1cc2ncnc(Nc3ccc(F)c(Cl)c3)c2cc1OCCN(C)C[C@H](C)O', 1.99),
  ('COc1cc(C(=O)NCCOCCOCCOCC(=O)N[C@H](C(=O)N2C[C@H](O)C[C@H]2C(=O)NCc2ccc(-c3scnc3C)cc2)C(C)(C)C)ccc1Nc1ncc(C(F)(F)F)c(Oc2cccc3c2C(=O)CC3)n1', 0.41),
  ('CN(c1ccc(C(F)(F)F)cc1)S(=O)(=O)c1ccc(C(=O)Nc2nc(-c3ccccn3)cs2)cc1', 5.15),
  ('Cn1c(C2(NC(=O)c3ccc(NCC4CCCCC4)nc3)CCC2)nc2ccc(/C=C/C(=O)O)cc21', 0.38),
  ('N[C@@H]1CCCN(c2c(/C=C3\SC(=O)NC3=O)cccc2-c2ccccc2)C1', 0.88),
  ('CC1=C(C(=O)OCCO)[C@@H](c2ccc(C#N)cc2)NC(=O)N1c1cccc(C(F)(F)F)c1', 0.44),
  ('CC(=O)N(CCN(C)C)c1ccc(N/C(=C2\C(=O)Nc3cc(Cl)ccc32)c2ccccc2)cn1', 2.87),
  ('CN(C)[C@H]1CC[C@H](Nc2ncc3ncnc(Nc4ccc(F)c(Cl)c4)c3n2)CC1', 1.07),
  ('COc1cc(C(=O)NC2CCN(C)CC2)ccc1Nc1ncc(C(F)(F)F)c(NCc2ccc(C)cc2N(C)S(C)(=O)=O)n1', 1.1),
  ('N#Cc1cccc(-c2c[nH]c3ncnc(N4CCOCC4)c23)c1', 0.56),
  ('Cc1cccc(CC(=O)N2CCc3c2ccc(-c2cn(C)c4ncnc(N)c24)c3F)n1', 0.49),
  ('CN1C(=O)Cc2ccc(-c3ccc(C[C@@H](C#N)NC(=O)[C@@H]4N[C@H]5CC[C@@H]4C5)c(F)c3)cc21', 0.17),
  ('COc1ccccc1Nc1nc(-c2nn(Cc3c(F)cc(OCCCO)cc3F)c3ccccc23)ncc1OC', -0.21),
  ('O=c1cc(C2CCNCC2)n2nc3cccc(Cl)c3c2[nH]1', 0.7),
  ('C[C@@H]1CCNC(=O)c2cc3ccc(C(=O)Nc4nc5ccccc5n4CCCN(C)C)cc3n21', 2.87),
  ('CC(C)(C)NC(=O)c1cncn1C1CCN(c2ccc(-c3nnc(C(F)(F)F)o3)cn2)CC1', 0.21),
  ('C[C@H](CCC(=O)O)[C@H]1CC[C@H]2[C@@H]3CC[C@@H]4C[C@H](O)CC[C@]4(C)[C@H]3C[C@H](O)[C@]12C', 0.54),
  ('CNCc1ccc(-c2cc(-c3nc(-c4ccc(S(=O)(=O)C(C)C)cc4)cnc3N)on2)cc1', -0.18),
  ('CN(C)C(=O)Cn1cc(-c2ccc(-c3cncc4ccccc34)cc2)cn1', 1.89),
  ('Cc1cc(C)nc(Nc2ncc(C(=O)NCCc3c(C)[nH]c4ccccc34)cn2)c1', -0.55),
  ('CNc1oc(-c2cccc3ccccc23)nc1C#N', -0.04),
  ('N#C/C(=C\c1ccc(O)c(O)c1)C(=O)OCCc1cccs1', 2.15),
  ('Cc1cnc(Nc2ccc(C(=O)N3CCN(C)CC3)cc2)nc1N[C@@H]1CCC[C@@H]1C(N)=O', 0.27),
  ('CCCCC[C@@](C)(O)/C=C/[C@H]1C(=O)CC(O)C1C/C=C\CCCC(=O)O (stereo partly specified)', -0.52),
  ('Cc1cc(Cn2c(N3CC4(CNC4)C3)nc3cc(Cl)cc(N4CCN(C)CC4)c32)cc(C)c1F', 0.39),
  ('O=C(Nc1cccc(C(F)(F)F)c1)c1cccc(-n2cc(-c3ccco3)nn2)c1', -5.13),
  ('CCn1c(CNC(=O)c2nc(Cl)cnc2N)[n+](CC)c2ccc(C(=O)N(C)CCN(C)C)cc21', 0.35),
  ('CCOC(=O)N1CCC(CN(Cc2ccc(Cl)cc2)Cc2ccc([N+](=O)[O-])s2)C1 (stereo unspecified)', 1.17),
  ('Cn1cc(NC(=O)c2ccc3nc4n(c3c2)CCCNC4=O)nc1C(=O)NC1CCCC1', 0.38),
  ('CS(=O)(=O)CCNCc1ccc(-c2ccc3ncnc(Nc4ccc(OCc5cccc(F)c5)c(Cl)c4)c3c2)o1', 0.12),
  ('Nc1ncnc2c1c(I)cn2[C@@H]1O[C@H](CO)[C@@H](O)[C@H]1O', 5.26),
  ('COc1cc(-c2cn(C)c(=O)c3cnccc23)c(OC)cc1CN(C)C', 0.06),
  ('O=C(O)c1ccnc(N2CC(O)(c3ccc(OCc4c(-c5c(Cl)cccc5Cl)noc4C4CC4)cc3Cl)C2)c1', 0.41),
  ('CC[C@H](Nc1c(C#N)c(-c2ccc(-c3cccc(C)c3F)cc2)nc2cnccc12)C(=O)O', -0.79),
  ('CCOc1cc(CC(=O)N[C@@H](CC(C)C)c2ccccc2N2CCCCC2)ccc1C(=O)O', -0.05),
  ('Cc1cccc(-c2[nH]c(CNc3ccccc3F)nc2-c2ccc3ncnn3c2)n1', 1.1);

---

# Assayed Target: Tyrosine-protein kinase ABL1 (Homo sapiens) (UniProt P00519)
# Sequence (P00519 whole entry): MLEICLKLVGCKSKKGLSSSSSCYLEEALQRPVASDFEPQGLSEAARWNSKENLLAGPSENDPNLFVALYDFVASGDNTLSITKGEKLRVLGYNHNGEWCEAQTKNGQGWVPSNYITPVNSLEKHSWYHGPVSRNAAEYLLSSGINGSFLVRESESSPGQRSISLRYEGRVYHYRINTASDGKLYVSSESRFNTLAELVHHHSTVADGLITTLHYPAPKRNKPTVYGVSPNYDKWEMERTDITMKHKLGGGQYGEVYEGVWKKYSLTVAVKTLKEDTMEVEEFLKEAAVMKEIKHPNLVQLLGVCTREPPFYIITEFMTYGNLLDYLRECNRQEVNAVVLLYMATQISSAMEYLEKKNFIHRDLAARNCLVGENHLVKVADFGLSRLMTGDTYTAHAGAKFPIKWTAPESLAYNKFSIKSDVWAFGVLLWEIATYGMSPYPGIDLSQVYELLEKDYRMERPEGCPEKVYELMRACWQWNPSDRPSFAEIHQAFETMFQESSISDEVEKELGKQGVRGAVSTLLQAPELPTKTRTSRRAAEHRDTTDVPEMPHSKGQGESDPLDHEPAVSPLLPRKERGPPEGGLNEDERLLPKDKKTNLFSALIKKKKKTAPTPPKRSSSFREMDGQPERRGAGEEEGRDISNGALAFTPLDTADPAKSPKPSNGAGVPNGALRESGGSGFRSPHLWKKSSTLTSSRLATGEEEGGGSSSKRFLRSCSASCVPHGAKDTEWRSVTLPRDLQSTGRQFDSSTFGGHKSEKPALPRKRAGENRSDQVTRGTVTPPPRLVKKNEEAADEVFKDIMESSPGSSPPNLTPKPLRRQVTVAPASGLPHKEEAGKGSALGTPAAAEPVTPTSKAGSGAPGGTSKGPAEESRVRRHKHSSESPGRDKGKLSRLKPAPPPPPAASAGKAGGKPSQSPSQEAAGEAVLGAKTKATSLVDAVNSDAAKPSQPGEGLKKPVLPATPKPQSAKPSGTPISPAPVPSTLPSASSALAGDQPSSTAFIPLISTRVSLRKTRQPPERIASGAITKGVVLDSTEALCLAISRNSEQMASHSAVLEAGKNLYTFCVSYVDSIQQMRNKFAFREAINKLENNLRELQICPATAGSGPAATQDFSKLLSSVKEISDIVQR
# Experimental Conditions: Compound concentration 20.0 uM, Protein concentration 2.0 uM, Result type QC Liability
# Description: Thermal Shift Assay. Domain: start/stop: S229-K512
Flag rule - ΔTm less than 0.3 °C flags 1 (yes); the remaining entries get 0 (no).

INSERT INTO results (compound, qualitative_label) VALUES
  ('CC(C)(C)C(=O)NCc1ccc(Cl)c(C(=O)Nc2ncc[nH]2)c1', '1 (yes)'),
  ('CCOc1ccc(S(=O)(=O)Nc2ccc(Cl)cc2C#Cc2cnc(C(=O)O)cc2OC)c2ncccc12', '1 (yes)'),
  ('CC(C)NC(=O)[C@H]1CCC[C@H]1Nc1nc(Nc2ccc(CN(C)C)cc2)ncc1Br', '0 (no)'),
  ('Cc1ccc(C(=O)Nc2cc(N3CCN(C)CC3)cc(C(F)(F)F)c2)cc1-n1cc(-c2cnn(C)c2C)nn1', '0 (no)'),
  ('COCc1c(-c2cc3cc(C)cc(OC)c3s2)c2c(N)ncnn2c1CN[C@@H]1CCNC1=O', '0 (no)'),
  ('C[S+]([O-])c1ccc(-c2nc(-c3cccc(I)c3)c(-c3ccncc3)[nH]2)cc1 (configuration not stated)', '0 (no)'),
  ('O=c1[nH]c(CS[C@H]2CC[C@H](O)CC2)nc2cc(OCC3CC3)cc(F)c12', '1 (yes)'),
  ('Cc1c(CN2CCC3(CC2)CN(c2ncnc4sc(CC(F)(F)F)cc24)C3)ccc2c1cc(C#N)n2CC(N)=O', '1 (yes)'),
  ('Cn1cc(Nc2nccc(N3CC4CCC(C3)N4C(=O)[C@@H]3CC3(F)F)n2)cn1', '0 (no)'),
  ('CN[C@@H](C)C(=O)N[C@H](C(=O)N1CCC[C@H]1c1nc(C(=O)c2ccc(F)cc2)cs1)C1CCCCC1', '1 (yes)'),
  ('CC(=O)O[C@H]1C(=O)[C@@]2(C)[C@H]([C@H](OC(=O)c3ccccc3)[C@]3(O)C[C@H](OC(=O)[C@H](O)[C@@H](NC(=O)c4ccccc4)c4ccccc4)C(C)=C1C3(C)C)[C@]1(OC(C)=O)CO[C@@H]1C[C@@H]2O', '0 (no)'),
  ('Fc1cccc(-n2cnc3c(NCc4nc5c(F)c(F)ccc5[nH]4)nc(N4CCOCC4)nc32)c1', '0 (no)'),
  ('CCCCC[C@H](O)/C=C/[C@H]1[C@H](O)CC(=O)[C@@H]1CCCCCCC(=O)O', '1 (yes)'),
  ('COc1cc(C(N)=O)nc(-c2cccc(C#C[C@]3(O)CCN(C)C3=O)c2)c1', '1 (yes)'),
  ('O=C(O)C[C@H]1CCn2c1c(Sc1ccc(Cl)cc1)c1ccc(F)cc12', '1 (yes)'),
  ('CN1CCc2cc(Nc3ncc(C(F)(F)F)c(NCc4cc[nH]n4)n3)ccc2C1', '0 (no)'),
  ('Cn1c(C2(NC(=O)c3ccc(NCC4CCCCC4)nc3)CCC2)nc2ccc(/C=C/C(=O)O)cc21', '1 (yes)');

---

# Assayed Target: Tyrosine-protein kinase ABL1 (Homo sapiens) (UniProt P00519)
# Experimental Conditions: Compound concentration 20.0 uM, Protein concentration 2.0 uM, Result type QC Liability
Flag rule - ΔTm less than -0.03 °C flags fulfilled; the remaining entries get not fulfilled.

INSERT INTO results (test_smiles, assayed_target, qualitative_label) VALUES
  ('C[C@@H]1CCNC(=O)c2cc3ccc(C(=O)Nc4nc5ccccc5n4CCCN(C)C)cc3n21', 'Tyrosine-protein kinase ABL1 (Homo sapiens) (UniProt P00519)', 'not fulfilled'),
  ('CCCc1c(OCCCOc2ccc(OCC(=O)O)cc2)ccc(C(C)=O)c1O', 'Tyrosine-protein kinase ABL1 (Homo sapiens) (UniProt P00519)', 'not fulfilled'),
  ('C[C@@H](COCCC(=O)N1CCN(c2ncc(C(F)(F)F)cn2)CC1)Nc1cn[nH]c(=O)c1C(F)(F)F', 'Tyrosine-protein kinase ABL1 (Homo sapiens) (UniProt P00519)', 'not fulfilled'),
  ('CN1C(=O)Cc2ccc(-c3ccc(C[C@@H](C#N)NC(=O)[C@@H]4N[C@H]5CC[C@@H]4C5)c(F)c3)cc21', 'Tyrosine-protein kinase ABL1 (Homo sapiens) (UniProt P00519)', 'fulfilled'),
  ('Cc1cccc(CC(=O)N2CCc3c2ccc(-c2cn(C)c4ncnc(N)c24)c3F)n1', 'Tyrosine-protein kinase ABL1 (Homo sapiens) (UniProt P00519)', 'not fulfilled'),
  ('CCC(=O)N[C@@H]1CC[C@H](C(=O)N(C)c2ccc(-c3nc4ccccc4o3)cc2)C1', 'Tyrosine-protein kinase ABL1 (Homo sapiens) (UniProt P00519)', 'not fulfilled'),
  ('CN(CCCCCCC1=C(c2cc(F)cc(F)c2)CCCc2cc(O)ccc21)CCCCS(=O)(=O)CCCC(F)(F)F', 'Tyrosine-protein kinase ABL1 (Homo sapiens) (UniProt P00519)', 'fulfilled');
